target: Alkaline phosphatase, tissue-nonspecific isozyme (Homo sapiens) (UniProt P05186); experiment: Inhibition of human serum containing 8% liver alkaline phosphatase using p-nitrophenyl phosphate as substrate at 8.7 x 10^-5 M up to 35 mins by spectrophotometry
Sequence (P05186 whole entry): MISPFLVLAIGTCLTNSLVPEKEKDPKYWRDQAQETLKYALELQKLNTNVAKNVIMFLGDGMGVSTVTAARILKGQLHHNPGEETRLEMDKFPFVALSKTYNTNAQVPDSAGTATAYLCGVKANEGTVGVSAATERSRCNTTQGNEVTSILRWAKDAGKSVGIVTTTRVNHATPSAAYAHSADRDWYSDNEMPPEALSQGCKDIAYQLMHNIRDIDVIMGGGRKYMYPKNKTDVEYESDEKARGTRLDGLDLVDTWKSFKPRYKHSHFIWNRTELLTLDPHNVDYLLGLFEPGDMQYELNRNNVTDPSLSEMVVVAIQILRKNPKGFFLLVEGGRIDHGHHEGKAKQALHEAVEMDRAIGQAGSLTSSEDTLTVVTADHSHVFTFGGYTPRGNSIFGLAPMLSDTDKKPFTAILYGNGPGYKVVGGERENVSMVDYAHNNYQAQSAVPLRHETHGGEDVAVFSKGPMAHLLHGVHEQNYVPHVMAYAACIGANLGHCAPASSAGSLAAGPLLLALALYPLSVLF
Activity calls are given as the source filed them. No cut-off for these calls is given here.

Compound	Target or test system	inhibition
c1ccc([C@@H]2CN3CCSC3=N2)cc1 (stereo in doubt; (+))	Alkaline phosphatase, tissue-nonspecific isozyme (Homo sapiens) (UniProt P05186)	inactive
c1ccc([C@@H]2CN3CC[Se]C3=N2)cc1	Alkaline phosphatase, tissue-nonspecific isozyme (Homo sapiens) (UniProt P05186)	inactive
c1ccc([C@@H]2CN3CCSC3=N2)cc1 (stereo in doubt; (-))	Alkaline phosphatase, tissue-nonspecific isozyme (Homo sapiens) (UniProt P05186)	76%
c1ccc([C@H]2CN3CC[Se]C3=N2)cc1	Alkaline phosphatase, tissue-nonspecific isozyme (Homo sapiens) (UniProt P05186)	80%

###

biological target: UniProt:P05186; test: Inhibition of human serum containing 60% liver alkaline phosphatase using p-nitrophenyl phosphate as substrate at 8.7 x 10^-5 M up to 35 mins by spectrophotometry
Activity calls are given as the source filed them. The calls are words filed in the database; no cut-off is given here.

Compound	Target or test system	inhibition
c1ccc([C@H]2CN3CC[Se]C3=N2)cc1	UniProt:P05186	78%
c1ccc([C@@H]2CN3CCSC3=N2)cc1 (stereo in doubt; (+))	UniProt:P05186	inactive
c1ccc([C@@H]2CN3CCSC3=N2)cc1 (stereo in doubt; (-))	UniProt:P05186	71%
c1ccc([C@@H]2CN3CC[Se]C3=N2)cc1	UniProt:P05186	inactive

###

biological target: Alkaline phosphatase, tissue-nonspecific isozyme (Homo sapiens) (UniProt P05186); assay: Inhibition of human serum containing 92% liver alkaline phosphatase using p-nitrophenyl phosphate as substrate at 8.7 x 10^-5 M up to 35 mins by spectrophotometry
The source made the active and inactive calls. The rule behind the calls is not given here.

Compound	inhibition
c1ccc([C@H]2CN3CC[Se]C3=N2)cc1	80%
c1ccc([C@@H]2CN3CCSC3=N2)cc1 (stereo in doubt; (-))	76%
c1ccc([C@@H]2CN3CCSC3=N2)cc1 (stereo in doubt; (+))	inactive
c1ccc([C@@H]2CN3CC[Se]C3=N2)cc1	inactive

###

molecular target: Alkaline phosphatase, tissue-nonspecific isozyme (Bos taurus) (UniProt P09487); assay: Inhibition of bovine liver alkaline phosphatase using p-nitrophenyl phosphate as substrate at 8.7 x 10^-5 M up to 35 mins by spectrophotometry
Sequence (P09487 whole entry): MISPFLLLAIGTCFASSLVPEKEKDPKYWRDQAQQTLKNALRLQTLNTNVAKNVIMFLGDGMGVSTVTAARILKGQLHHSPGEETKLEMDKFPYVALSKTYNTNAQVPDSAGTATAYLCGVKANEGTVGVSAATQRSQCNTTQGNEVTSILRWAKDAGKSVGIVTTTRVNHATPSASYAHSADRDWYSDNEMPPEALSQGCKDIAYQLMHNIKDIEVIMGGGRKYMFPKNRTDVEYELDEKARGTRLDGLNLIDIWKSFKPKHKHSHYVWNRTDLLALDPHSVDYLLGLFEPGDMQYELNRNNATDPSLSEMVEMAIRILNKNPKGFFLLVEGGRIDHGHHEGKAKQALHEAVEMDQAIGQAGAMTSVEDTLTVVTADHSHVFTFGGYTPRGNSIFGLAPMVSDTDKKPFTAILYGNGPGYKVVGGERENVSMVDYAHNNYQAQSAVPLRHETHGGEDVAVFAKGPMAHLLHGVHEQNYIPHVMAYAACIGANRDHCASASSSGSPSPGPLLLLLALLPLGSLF
Activity calls are given as the source filed them. No cut-off for these calls is given here.
Assay metric: inhibition

Compound	Target or test system	Result
c1ccc([C@@H]2CN3CCSC3=N2)cc1 (stereo in doubt; (+))	Alkaline phosphatase, tissue-nonspecific isozyme (Bos taurus) (UniProt P09487)	inactive
c1ccc([C@H]2CN3CC[Se]C3=N2)cc1	Alkaline phosphatase, tissue-nonspecific isozyme (Bos taurus) (UniProt P09487)	76%
c1ccc([C@@H]2CN3CCSC3=N2)cc1 (stereo in doubt; (-))	Alkaline phosphatase, tissue-nonspecific isozyme (Bos taurus) (UniProt P09487)	67%
c1ccc([C@@H]2CN3CC[Se]C3=N2)cc1	Alkaline phosphatase, tissue-nonspecific isozyme (Bos taurus) (UniProt P09487)	inactive

###

target: Alkaline phosphatase, tissue-nonspecific isozyme (Homo sapiens) (UniProt P05186); assay: Inhibition of human serum containing 64% liver alkaline phosphatase using p-nitrophenyl phosphate as substrate at 8.7 x 10^-5 M up to 35 mins by spectrophotometry
Activity calls are given as the source filed them. The calls are words filed in the database; no cut-off is given here.

Molecule	inhibition
c1ccc([C@@H]2CN3CCSC3=N2)cc1 (stereo in doubt; (+))	inactive
c1ccc([C@@H]2CN3CC[Se]C3=N2)cc1	inactive
c1ccc([C@H]2CN3CC[Se]C3=N2)cc1	70%
c1ccc([C@@H]2CN3CCSC3=N2)cc1 (stereo in doubt; (-))	65%

###

biological target: Intestinal-type alkaline phosphatase (Bos taurus) (UniProt P19111); assay: Inhibition of calf intestine alkaline phosphatase using p-nitrophenyl phosphate as substrate at 8.7 x 10^-5 M up to 35 mins by spectrophotometry
Sequence (P19111 20-506 limits assumed): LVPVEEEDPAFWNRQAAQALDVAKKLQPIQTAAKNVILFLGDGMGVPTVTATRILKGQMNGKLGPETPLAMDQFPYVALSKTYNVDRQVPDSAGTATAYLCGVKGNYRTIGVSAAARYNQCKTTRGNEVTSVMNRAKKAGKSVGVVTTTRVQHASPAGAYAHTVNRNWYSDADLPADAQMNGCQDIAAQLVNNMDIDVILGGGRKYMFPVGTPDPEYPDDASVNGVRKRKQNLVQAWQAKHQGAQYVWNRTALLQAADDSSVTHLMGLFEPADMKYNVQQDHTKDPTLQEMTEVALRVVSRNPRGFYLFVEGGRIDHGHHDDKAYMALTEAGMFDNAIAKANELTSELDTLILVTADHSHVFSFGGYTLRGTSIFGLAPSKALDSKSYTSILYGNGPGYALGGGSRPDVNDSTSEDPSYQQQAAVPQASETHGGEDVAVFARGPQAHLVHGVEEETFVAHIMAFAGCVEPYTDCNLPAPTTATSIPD
The source made the active and inactive calls. The rule behind the calls is not given here.
Assay metric: inhibition

Molecule	Assay metric	Result
c1ccc([C@@H]2CN3CC[Se]C3=N2)cc1	inhibition	inactive
c1ccc([C@H]2CN3CC[Se]C3=N2)cc1	inhibition	10%
c1ccc([C@@H]2CN3CCSC3=N2)cc1 (stereo in doubt; (+))	inhibition	inactive
c1ccc([C@@H]2CN3CCSC3=N2)cc1 (stereo in doubt; (-))	inhibition	10%

###

target: UniProt P05186; experiment: Inhibition of human serum containing 86% liver alkaline phosphatase using p-nitrophenyl phosphate as substrate at 8.7 x 10^-5 M up to 35 mins by spectrophotometry
The source made the active and inactive calls. No cut-off for these calls is given here.
Assay metric: inhibition

Compound	Result
c1ccc([C@@H]2CN3CCSC3=N2)cc1 (stereo in doubt; (-))	56%
c1ccc([C@@H]2CN3CCSC3=N2)cc1 (stereo in doubt; (+))	inactive
c1ccc([C@@H]2CN3CC[Se]C3=N2)cc1	inactive
c1ccc([C@H]2CN3CC[Se]C3=N2)cc1	63%
